Assignment: determine reported Ki for the given molecules.
Molecular target: D(2) dopamine receptor (Homo sapiens, UniProt P14416)
Sequence (P14416 whole entry): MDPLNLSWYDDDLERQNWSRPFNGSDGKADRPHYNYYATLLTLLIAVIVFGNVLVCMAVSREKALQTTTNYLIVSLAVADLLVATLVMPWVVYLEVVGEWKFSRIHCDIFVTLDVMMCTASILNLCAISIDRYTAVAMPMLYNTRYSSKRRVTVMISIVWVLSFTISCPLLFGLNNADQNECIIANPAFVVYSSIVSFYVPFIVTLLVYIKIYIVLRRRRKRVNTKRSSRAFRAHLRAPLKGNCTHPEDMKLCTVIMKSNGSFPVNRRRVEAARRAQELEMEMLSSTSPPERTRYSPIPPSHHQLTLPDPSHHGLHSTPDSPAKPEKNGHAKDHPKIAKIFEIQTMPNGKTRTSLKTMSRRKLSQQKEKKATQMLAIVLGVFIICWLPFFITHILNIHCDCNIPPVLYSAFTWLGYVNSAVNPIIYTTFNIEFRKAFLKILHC
Experiment: Displacement of [3H]spiperone form human dopamine D2 receptor by liquid scintillation counting
Answers are plain numbers, in nM.

As a guide, the following entries are already answered.
molecule | target entity | Ki / nM
CS(=O)(=O)Nc1cc(OCCN2CC3CCC(C2)C3Cc2ccc3c(c2)NC(=O)CC3)ccc1F (stereo not drawn) | D(2) dopamine receptor (Homo sapiens, UniProt P14416) | 7
CS(=O)(=O)Nc1cccc(OCCN2CCC(Oc3ccc4c(c3)NC(=O)CC4)CC2)c1 | D(2) dopamine receptor (Homo sapiens, UniProt P14416) | 18
CS(=O)(=O)Nc1cccc(OCCN2CCC(Cc3ccc4c(c3)NC(=O)CC4)CC2)c1 | D(2) dopamine receptor (Homo sapiens, UniProt P14416) | 9

For each of the molecules below, note its Ki.
1. CS(=O)(=O)Nc1cc(OCCN2CCC(Cc3ccc4c(c3)NC(=O)CC4)CC2)ccc1F
2. CS(=O)(=O)Nc1cccc(OCCN2CC3CCC(C2)C3Cc2ccc3c(c2)NC(=O)CC3)c1 (stereo not drawn)
3. O=C1CCc2ccc(CC3C4CCC3CN(C[C@@H]3COc5c(ccc6c5CC(=O)N6)O3)C4)cc2N1 (stereo partly drawn)
4. O=C1CCc2ccc(CC3CC4CCC(C3)N4C[C@@H]3COc4c(ccc5c4CC(=O)N5)O3)cc2N1 (stereo partly drawn)
5. O=C1CCc2ccc(CC3CCN(C[C@@H]4COc5c(ccc6c5CC(=O)N6)O4)CC3)cc2N1
6. CS(=O)(=O)Nc1cc(OCCN2CCC(Oc3ccc4c(c3)NC(=O)CC4)CC2)ccc1F

1: 19; 2: 11; 3: 6.3; 4: 16; 5: 8; 6: 9

----------
Assignment: determine reported log10 of Ki for the given compounds.
Target: Adrenergic receptor alpha-1 (Homo sapiens, UniProt P35348+P25100+P35368)
Test: Binding affinity to human alpha1 adrenergic receptor by radioligand displacement assay
Field: value | Transform: log10 | Quantity: Ki | Unit: nM

As a guide, the following entries are already answered.
compound | log10 of Ki
CS(=O)(=O)Nc1cccc(OCCN2CCC(Oc3ccc4c(c3)NC(=O)CC4)CC2)c1 | 1.96
CS(=O)(=O)Nc1cc(OCCN2CC3CCC(C2)C3Cc2ccc3c(c2)NC(=O)CC3)ccc1F (stereo not drawn) | 3.04
O=C1CCc2ccc(OC3CCN(C[C@@H]4COc5c(ccc6c5CC(=O)N6)O4)CC3)cc2N1 | 0.30

For each of the compounds below, note its log10 of Ki.
1. O=C1CCc2ccc(CC3CCN(C[C@@H]4COc5c(ccc6c5CC(=O)N6)O4)CC3)cc2N1
2. O=C1CCc2ccc(CC3C4CCC3CN(C[C@@H]3COc5c(ccc6c5CC(=O)N6)O3)C4)cc2N1 (stereo partly drawn)
3. O=C1CCc2ccc(CC3CC4CCC(C3)N4C[C@@H]3COc4c(ccc5c4CC(=O)N5)O3)cc2N1 (stereo partly drawn)

1. 0.30
2. 1.66
3. 0.90

Which log10 of Ki is listed for CS(=O)(=O)Nc1cc(OCCN2CCC(Oc3ccc4c(c3)NC(=O)CC4)CC2)ccc1F ?
2.55

----------
Assignment: determine reported Ratio for the given compounds.
Target: D(2) dopamine receptor (Homo sapiens, UniProt P14416)
Test: Ratio of compound to quinpirole partial agonist activity at human dopamine D2 receptor
Type: functional
Answers are plain numbers.

As a guide, the following entries are already answered.
compound | target entity | measured result
CS(=O)(=O)Nc1cccc(OCCN2CCC(Oc3ccc4c(c3)NC(=O)CC4)CC2)c1 | D(2) dopamine receptor (Homo sapiens, UniProt P14416) | 0.21
O=C1CCc2ccc(CC3CCN(C[C@@H]4COc5c(ccc6c5CC(=O)N6)O4)CC3)cc2N1 | D(2) dopamine receptor (Homo sapiens, UniProt P14416) | 0.38
CS(=O)(=O)Nc1cc(OCCN2CC3CCC(C2)C3Cc2ccc3c(c2)NC(=O)CC3)ccc1F (stereo not given) | D(2) dopamine receptor (Homo sapiens, UniProt P14416) | 0.85
CS(=O)(=O)Nc1cccc(OCCN2CC3CCC(C2)C3Cc2ccc3c(c2)NC(=O)CC3)c1 (stereo not given) | D(2) dopamine receptor (Homo sapiens, UniProt P14416) | 0.25
O=C1CCc2ccc(OC3CCN(C[C@@H]4COc5c(ccc6c5CC(=O)N6)O4)CC3)cc2N1 | D(2) dopamine receptor (Homo sapiens, UniProt P14416) | 0.41

Lookup: Ratio / D(2) dopamine receptor (Homo sapiens, UniProt P14416) / O=C1CCc2ccc(CC3C4CCC3CN(C[C@@H]3COc5c(ccc6c5CC(=O)N6)O3)C4)cc2N1 (stereo not given in full)
0.4
